system: LOC_OS01G39600-cb002; test: thermal shift delta Tm vs DMSO control; higher = stronger stabilization (binding); settings: 12.5 µM; protein concentration 2 µM;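 also: purified Escherichia coli-expressed rice kinase domain construct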
Respond with Met for thermal shift delta Tm values of 0.6 °C and above, Not met for values below.

| COMPOUND | ASSIGNED CLASS |
| --- | --- |
| CCOC(=O)c1cnc2ccc(-c3cncc(NS(=O)(=O)c4ccccc4)c3)cn12 | Not met |
| Cc1nc(N)sc1-c1ccnc(Nc2ccc(N3CCOCC3)cc2)n1 | Met |

Prompt line: Given the entry CS(=O)(=O)N1CCN(Cc2cc3nc(-c4cccc5[nH]ncc45)nc(N4CCOCC4)c3s2)CC1 [Pictilisib (GDC-0941)] , answer whether its thermal shift delta Tm meets or surpasses 0.6 °C.
Response line: Not met

Prompt line: Given the entry O=C(NC[C@H](O)CO)c1ccncc1Nc1ccc(I)cc1F , answer whether its thermal shift delta Tm meets or surpasses 0.6 °C.
Response line: Not met

Prompt line: Given the entry CCCNC(=O)Nc1ccc(Oc2ncnc3cc(OC)c(OC)cc23)cc1Cl , answer whether its thermal shift delta Tm meets or surpasses 0.6 °C.
Response line: Met

Prompt line: Given the entry CNC(=O)c1nn(C)c2c1C(C)(C)Cc1cnc(Nc3ccc(N4CCN(C)CC4)cc3)nc1-2 , answer whether its thermal shift delta Tm meets or surpasses 0.6 °C.
Response line: Not met

Prompt line: Given the entry COc1ccc(-c2ccc3c(N4CCOC[C@@H]4C)nc(N4CCOC[C@@H]4C)nc3n2)cc1CO , answer whether its thermal shift delta Tm meets or surpasses 0.6 °C.
Response line: Not met

Prompt line: Given the entry Cc1cccc(CC(=O)N2CCc3c2ccc(-c2cn(C)c4ncnc(N)c24)c3F)n1 , answer whether its thermal shift delta Tm meets or surpasses 0.6 °C.
Response line: Not met

====

test system: LOC_OS06G16330-cb003; experiment: thermal shift delta Tm vs DMSO control; higher = stronger stabilization (binding); settings: 12.5 µM; protein concentration 2 µM
Sequence (as listed by the source): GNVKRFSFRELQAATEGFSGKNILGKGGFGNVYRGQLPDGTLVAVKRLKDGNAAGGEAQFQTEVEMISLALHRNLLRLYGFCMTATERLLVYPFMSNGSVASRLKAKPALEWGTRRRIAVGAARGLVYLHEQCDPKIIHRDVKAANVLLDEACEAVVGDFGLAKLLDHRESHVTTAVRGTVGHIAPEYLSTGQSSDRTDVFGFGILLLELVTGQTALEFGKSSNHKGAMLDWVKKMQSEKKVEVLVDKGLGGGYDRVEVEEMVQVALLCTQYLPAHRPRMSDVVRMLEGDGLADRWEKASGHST
Each entry below carries its reported thermal shift delta Tm.
I'd appreciate it if you included the unit after the number.

Prompt line: Provide only the value of recorded thermal shift delta Tm for O=S(=O)(c1cccc2c(I)cccc12)N1CCCNCC1
Response line: 0.09 °C

Prompt line: Provide only the value of recorded thermal shift delta Tm for C[C@@]1(C(=O)Nc2ccc(F)nc2)CCCN1c1nc(Nc2cc(C3CC3)n[nH]2)c2cccn2n1
Response line: 7.13 °C

Prompt line: Provide only the value of recorded thermal shift delta Tm for Cc1c(Cn2c(C)nc3c(C(=O)O)cc(N4CCOCC4)cc32)cccc1C(F)(F)F
Response line: -0.16 °C

Prompt line: Provide only the value of recorded thermal shift delta Tm for CCCCCCCCCC(=O)CC(O)S(=O)(=O)O (stereo not given) [Sodium Houttuyfonate]
Response line: -8.96 °C

Prompt line: Provide only the value of recorded thermal shift delta Tm for COc1cc(N2CCN(C)CC2)ccc1Nc1nccc(-c2cn(C)c3cnccc23)n1
Response line: 5.31 °C

====

tested on: LOC_OS01G70970-cb002; assay: thermal shift delta Tm vs DMSO control; higher = stronger stabilization (binding); conditions: 12.5 µM; protein concentration 2 µM
Each entry below carries its reported thermal shift delta Tm.

Here is how some compounds turned out for thermal shift delta Tm.
| COMPOUND | MEASURED VALUE |
| --- | --- |
| CCCCNc1ncc(-c2ccc(CN3CCOCC3)cn2)c(NC2CCC(O)CC2)n1 (centres undefined) | 5.72 °C |
| S=C(NCc1ccc2c(c1)OCO2)N1CCN(c2ncnc3c2oc2ccccc23)CC1 [Amuvatinib (MP-470)] | 0.42 °C |
| COCCOc1cnc2ccn([C@H](C)c3nnc4c(F)cc(-c5cnn(C)c5)cn34)c(=O)c2c1 | 0.36 °C |
| CCc1ccc(/C=C2/SC(=S)NC2=O)cc1 | 1.39 °C |
| C[C@@H]1COCCN1c1cc(C2([S@](C)(=N)=O)CC2)nc(-c2cc[nH]c3nccc2-3)n1 | 0.14 °C |
| COc1ccc(F)c(F)c1C(=O)c1cnc(NC2CCN(S(C)(=O)=O)CC2)nc1N | 0.03 °C |

Prompt line: Provide only the value of recorded thermal shift delta Tm for CN1CCN(c2cccc(Nc3nc4c(-c5ccc(S(C)(=O)=O)cc5)cccn4n3)c2)CC1
Response line: 0.37 °C

Prompt line: Provide only the value of recorded thermal shift delta Tm for COc1ccc(-c2ccc3ncc4c(c3c2)n(-c2ccc(N3CCNCC3)c(C(F)(F)F)c2)c(=O)n4C)cn1
Response line: 0.41 °C

Prompt line: Provide only the value of recorded thermal shift delta Tm for CC(C)(C)NC(=O)c1cncn1C1CCN(c2ccc(-c3nnc(C(F)(F)F)o3)cn2)CC1
Response line: 0.37 °C

Prompt line: Provide only the value of recorded thermal shift delta Tm for CONC(=O)c1ccccc1Nc1cc(Nc2cc(C)nn2C(C)C)ncc1Cl
Response line: 1.15 °C

Prompt line: Provide only the value of recorded thermal shift delta Tm for Cc1ncc(CO)c(CO)c1O [Pyridoxine]
Response line: 0.33 °C

====

Each entry below carries its reported thermal shift delta Tm.
system: LOC_OS02G07810-cb001; experiment: thermal shift delta Tm vs DMSO control; higher = stronger stabilization (binding); conditions: 12.5 µM; protein concentration 2 µM
Quick reminder: number only, in °C, skip the unit.

| COMPOUND | MEASUREMENT UNITS | thermal shift delta Tm |
| --- | --- | --- |
| Cn1cc(-c2ccc3c(c2)CCN3C(=O)Cc2cccc(C(F)(F)F)c2)c2c(N)ncnc21 | °C | 0.74 |

// next item, thermal shift delta Tm requested
Prompt line: Provide only the value of recorded thermal shift delta Tm for CC(C)(C)c1nc(-c2ccc(NC(=O)Nc3cccc(C(F)(F)F)c3)c3ccccc23)c2c(N)nccn12 [kira6]
Response line: 0.03

====

system: LOC_OS01G60700-cb002; test: thermal shift delta Tm vs DMSO control; higher = stronger stabilization (binding); details: 12.5 µM; protein concentration 2 µM
Respond with 1.0 for thermal shift delta Tm values of 1 °C and above, 0.0 for values below.

As a guide, the following entries are already answered.
| MOLECULE | ASSIGNED CLASS |
| --- | --- |
| COc1cc2nccc(Oc3ccc(NC(=O)C4(C(=O)Nc5ccc(F)cc5)CC4)cc3)c2cc1OC | 1.0 |
| Cc1cc(Nc2ncnc3ccc(-c4ccc(CNCCS(C)(=O)=O)o4)cc23)ccc1Oc1ccn2ncnc2c1 [HER2-Inhibitor-1] | 1.0 |
| COCC(=O)NC/C=C/c1ccc2ncnc(Nc3ccc(Oc4ccc(C)nc4)c(C)c3)c2c1 | 0.0 |
| Cc1cccc(CC(=O)N2CCc3c2ccc(-c2cn(C)c4ncnc(N)c24)c3F)n1 | 1.0 |

Prompt line: Given the entry CC(C)c1cnn2c(NCc3ccccc3)cc(NCCCCCCN)nc12 , answer whether its thermal shift delta Tm meets or surpasses 1 °C.
Response line: 0.0

====

Each entry below carries its reported thermal shift delta Tm.
tested on: LOC_OS01G60330-cb001; assay: thermal shift delta Tm vs DMSO control; higher = stronger stabilization (binding); settings: 12.5 µM; protein concentration 2 µM
Quick reminder: number only, in °C, skip the unit.

Here is how some compounds turned out for thermal shift delta Tm.
| COMPOUND | thermal shift delta Tm [°C] |
| --- | --- |
| CCOc1cc2ncc(C#N)c(Nc3ccc(F)c(Cl)c3)c2cc1NC(=O)/C=C/CN(C)C [Pelitinib (EKB-569)] | 0.74 |
| CC(=O)Nc1nc(C)c(-c2ccc(Cl)c(S(=O)(=O)NCCO)c2)s1 | 1.21 |
| N#Cc1cnc(Nc2cc(NC[C@H]3CNCCO3)c(C(F)(F)F)cn2)cn1 | 1.05 |
| Cn1cc(-c2ccc(F)c(C(F)(F)F)c2)nc1C1CCN(c2ncnc3[nH]ncc23)CC1 | 1.11 |

Prompt line: Provide only the value of recorded thermal shift delta Tm for CN1CC[C@H](c2c(O)cc(O)c3c(=O)cc(-c4ccccc4Cl)oc23)[C@H](O)C1 [Flavopiridol (Alvocidib)]
Response line: 0.94

Prompt line: Provide only the value of recorded thermal shift delta Tm for COc1cc(Nc2ncc(F)c(Nc3ccc4c(n3)NC(=O)C(C)(C)O4)n2)cc(OC)c1OC [R406 (free base)]
Response line: 8.58

Prompt line: Provide only the value of recorded thermal shift delta Tm for Cc1ccc(C(=O)Nc2cccc(C(F)(F)F)c2)cc1Nc1nc(-c2cccnc2)nc2c1cnn2C
Response line: 2.86

Prompt line: Provide only the value of recorded thermal shift delta Tm for O=c1ccc2ccc(O)c(O)c2o1
Response line: 1.15

Prompt line: Provide only the value of recorded thermal shift delta Tm for COc1cc2ncnc(Nc3ccc(F)c(Cl)c3)c2cc1NC(=O)/C=C/CN1CCCCC1
Response line: 2.36

Prompt line: Provide only the value of recorded thermal shift delta Tm for Cn1c2ccccc2c2c3c(c4c5ccccc5n(CCC#N)c4c21)CNC3=O
Response line: 2.57

Prompt line: Provide only the value of recorded thermal shift delta Tm for CO[C@H]1C[C@@H]2CC[C@@H](C)[C@@](O)(O2)C(=O)C(=O)N2CCCC[C@H]2C(=O)O[C@H]([C@H](C)C[C@@H]2CC[C@@H](OC(=O)C(C)(CO)CO)[C@H](OC)C2)CC(=O)[C@H](C)/C=C(\C)[C@@H](O)[C@@H](OC)C(=O)[C@H](C)C[C@H](C)/C=C/C=C/C=C/1C
Response line: 1.91
